- Tested on: Enterovirus
- Method: Inhibitory concentration to prevent formation of Enterovirus (EV 71) plaques
- Assay type: functional, organism-based
IC50 values, listed per item

Solved cases (4 shown):
{"columns": ["Compound Structure", "Target Or Test System", "Reported Result"],
 "data": [
  ["Cn1ncc2c(N3CCN(C(c4ccccc4)c4ccccc4)CC3)ncnc21", "Enterovirus", "> 25 µM"],
  ["CCn1ncc2c(N3CCN(C(c4ccccc4)c4ccccc4)CC3)ncnc21", "Enterovirus", "> 25 µM"],
  ["c1ccc(C(c2ccccc2)N2CCN(c3[nH]cnc4nncc3-4)CC2)cc1", "Enterovirus", "> 25 µM"],
  ["c1ccc(Cn2ncc3c(N4CCN(C(c5ccccc5)c5ccccc5)CC4)ncnc32)cc1", "Enterovirus", "> 25 µM"]
]}

Please look at the following molecule next.
Sample "CCCn1ncc2c(N3CCN(C(c4ccccc4)c4ccccc4)CC3)ncnc21" — what was its IC50?
> 25 µM
